Target: PPAR-α (Homo sapiens)
Sequence (Q07869 1-468): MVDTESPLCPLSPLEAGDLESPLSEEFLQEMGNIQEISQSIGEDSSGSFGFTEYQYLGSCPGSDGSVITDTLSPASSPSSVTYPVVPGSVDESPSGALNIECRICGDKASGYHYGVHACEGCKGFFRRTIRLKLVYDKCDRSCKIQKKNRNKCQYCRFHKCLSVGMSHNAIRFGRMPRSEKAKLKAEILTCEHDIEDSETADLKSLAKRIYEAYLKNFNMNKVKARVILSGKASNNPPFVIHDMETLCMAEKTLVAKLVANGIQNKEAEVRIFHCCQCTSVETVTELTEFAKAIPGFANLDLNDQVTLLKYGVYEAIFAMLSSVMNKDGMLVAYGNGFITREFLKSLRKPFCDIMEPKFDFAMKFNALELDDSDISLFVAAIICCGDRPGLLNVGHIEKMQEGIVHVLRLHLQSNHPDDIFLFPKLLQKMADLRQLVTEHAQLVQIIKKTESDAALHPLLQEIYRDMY
Experiment: Scintillation Proximity Assay (SPA), displacement of 3H labeled GW2331
Assay type: binding
Details: 3H GW2331 displacement, read-out: PPAR-alpha Ki
pKi: −log10 of the molar value.
// label = satisfied if pKi is not less than 6, otherwise not satisfied

Compound	Assay System	Assigned Class
Cc1oc(-c2ccccc2)nc1CCOc1ccc(C(O)C2(C(=O)O)CCC2)cn1 (centres unmarked)	PPAR-α (Homo sapiens)	not satisfied
Cc1oc(-c2ccccc2)nc1CCOc1ncc(CC2(C(=O)O)CCCO2)cn1 (centres unmarked)	PPAR-α (Homo sapiens)	not satisfied
Cc1oc(-c2ccccc2)nc1COC(=O)NCc1ccc(OC(C)(C)C(=O)O)cc1	PPAR-α (Homo sapiens)	not satisfied
Cc1oc(-c2ccccc2)nc1CCOc1ccc(CC2(C(=O)O)CCCCO2)cn1 (centres unmarked)	PPAR-α (Homo sapiens)	satisfied

Source of measurements: patent US20050234066A1
